# System: XF498
# TEST METHOD NOTES: NCI tumour cell line growth inhibition, 48 h
Active and inactive are the calls of the source. Cut-off read from the data, not from the text of the source: active = GI50 up to about 1.1 µM and inactive = higher.
// allowed return values: active, inactive

| MOLECULE | STUDY SYSTEM | QUALITATIVE LABEL |
| --- | --- | --- |
| O=C1OC(=O)C2C3C=CC(C12)C1C2C=CC2C31 (centres undefined) | XF498 | inactive |

Q: State the result this test recorded for CNC1=Nc2ccc(Cl)cc2C(c2ccccc2)=NN1C .
Ans: inactive

Q: State the result this test recorded for C[N+]1(C)C[C@@H](O)C[C@@H]1C(=O)[O-] .
Ans: inactive

Q: State the result this test recorded for O=c1cc(-c2ccccc2)oc2cc(OCCCOc3ccc4c(=O)cc(-c5ccccc5)oc4c3)ccc12 .
Ans: inactive

Q: State the result this test recorded for NC1C2(CCCCCC2)NC(=O)C12CCCCCC2 (centres undefined) .
Ans: inactive

Q: State the result this test recorded for Cc1cc(N(CCC#N)CCC#N)ccc1/C(Sc1ccccc1)=C(\NC(=O)/C=C/c1ccccc1)C(=O)Sc1ccccc1 .
Ans: inactive

Q: State the result this test recorded for CN(C)CCCNc1ccc2nnn3c4ccc([N+](=O)[O-])cc4c(=O)c1c23 .
Ans: inactive

Q: State the result this test recorded for CC[C@@]1(O)C(=O)OCc2c1cc1n(c2=O)Cc2c-1nc1ccccc1c2Cl .
Ans: active

Q: State the result this test recorded for COC(=O)CCC1=NOC(CC2CC(CCC(=O)OC)=NO2)C1 (centres undefined) .
Ans: inactive

Q: State the result this test recorded for O=[N+]([O-])c1ccc(C2=Nn3c(nnc3-c3ccccc3)SC2)o1 .
Ans: inactive

Q: State the result this test recorded for COc1cc2ccc1-c1cc(ccc1O)CC1c3cc4c(cc3CCN1C)Oc1c(OC)cc3c(c1O4)C(C2)N(C)CC3 (centres undefined) .
Ans: inactive
